Catalogue of compounds with associated MIC A. baumannii ATCC19606
- Test system: A. baumannii ATCC19606
- Test Conditions: MH broth pH 7.4, 16–20 h, 37 °C
Non-standard residues stand in square brackets, D forms with d. Residues, ends and D or L forms follow the SMILES beside them.
Value Type: MIC A. baumannii ATCC19606 (µg/mL)

* CC(C)C[C@H](NC(=O)[C@H](CC(C)C)NC(=O)[C@H](CC(C)C)NC(=O)[C@H](CCCCN)NC(=O)[C@H](CC(C)C)NC(=O)[C@@H](CC(C)C)NC(=O)[C@H](CCCCN)NC(=O)[C@@H](CC(C)C)NC(=O)[C@@H](CC(C)C)NC(=O)[C@@H](CCCCN)NC(=O)[C@@H](N)CCCCN)C(N)=O | 8
* CC(C)C[C@H](NC(=O)[C@H](CC(C)C)NC(=O)[C@H](CC(C)C)NC(=O)[C@H](CCCCN)NC(=O)[C@H](CC(C)C)NC(=O)[C@H](CC(C)C)NC(=O)[C@H](CCCCN)NC(=O)[C@H](CC(C)C)NC(=O)[C@H](CC(C)C)NC(=O)[C@@H](CCCCN)NC(=O)[C@@H](N)CCCCN)C(N)=O | 4
* CC(C)C[C@H](NC(=O)[C@H](CC(C)C)NC(=O)[C@H](CC(C)C)NC(=O)[C@@H](CCCNC(=N)N)NC(=O)[C@H](CC(C)C)NC(=O)[C@H](CC(C)C)NC(=O)[C@@H](CCCNC(=N)N)NC(=O)[C@H](CC(C)C)NC(=O)[C@H](CC(C)C)NC(=O)[C@@H](CCCNC(=N)N)NC(=O)[C@H](N)CCCNC(=N)N)C(N)=O [HP33, rrLLrLLrLLL] (H-[dR][dR]LL[dR]LL[dR]LLL-NH2) | 4
